molecular target: T1, human CD40 on cells (human, UniProt P25942 21-277); assay: FACS, Raji cells
T1 construct: whole, on cells; The cell line used is named in each row's assay; also called hCD40; TNFRSF5
T1 sequence (P25942 21-277): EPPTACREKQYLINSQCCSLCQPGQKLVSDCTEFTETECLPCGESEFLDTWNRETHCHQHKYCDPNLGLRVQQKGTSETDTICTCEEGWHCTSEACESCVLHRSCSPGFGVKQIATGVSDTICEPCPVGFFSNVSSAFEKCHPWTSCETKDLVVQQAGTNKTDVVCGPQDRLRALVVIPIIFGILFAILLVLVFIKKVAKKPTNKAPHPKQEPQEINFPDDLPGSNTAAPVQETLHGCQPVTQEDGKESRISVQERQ
measurement-name: Maximum MFI (MFI)
Numbers only here, please. The scale is MFI.

Worked cases, Maximum MFI given:
PR006496 (antibody, human IgG1, kappa, V domains shown, PR003379 variant L:N92F; human IgG1 L234A, L235A, G237A) VH: QVQLVQSGAEVKKPGASVKVSCKASGYTFAGYYMYWVRQAPGQGLEWMGWINPDSGAPTYAQKFQGRVTMTRDTSISTAYMELSRLRSDDTAVYYCAREKIYYGSGNYYPSFDYWGQGTLVTVSS VL: DIQLTQSPSFLSASVGDRVTITCRASQGISSYLAWYQQKPGKAPKLLIYAASTLQSGVPSRFSGSGSGTEFTLTISSLQPEDFATYYCQQLFSYPWTFGQGTKVEIKR	9300
PR006503 (antibody, human IgG1, kappa, V domains shown, PR003379 variant L:N92G; human IgG1 L234A, L235A, G237A) VH: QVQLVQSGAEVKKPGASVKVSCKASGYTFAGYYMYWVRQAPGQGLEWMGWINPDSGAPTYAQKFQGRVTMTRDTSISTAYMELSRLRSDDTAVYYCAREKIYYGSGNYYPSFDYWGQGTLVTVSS VL: DIQLTQSPSFLSASVGDRVTITCRASQGISSYLAWYQQKPGKAPKLLIYAASTLQSGVPSRFSGSGSGTEFTLTISSLQPEDFATYYCQQLGSYPWTFGQGTKVEIKR	12200
PR006505 (antibody, human IgG1, kappa, V domains shown, PR003379 variant L:S93I; human IgG1 L234A, L235A, G237A) VH: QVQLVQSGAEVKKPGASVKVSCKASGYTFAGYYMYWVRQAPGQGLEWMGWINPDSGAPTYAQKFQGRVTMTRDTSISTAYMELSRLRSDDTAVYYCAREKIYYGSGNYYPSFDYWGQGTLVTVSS VL: DIQLTQSPSFLSASVGDRVTITCRASQGISSYLAWYQQKPGKAPKLLIYAASTLQSGVPSRFSGSGSGTEFTLTISSLQPEDFATYYCQQLNIYPWTFGQGTKVEIKR	11900
PR001306 (CDX-1140) (antibody, human IgG2, kappa, V domains shown, CD40 positive control antibody) VH: QVQLVESGGGVVQPGKSLRLSCAASGFTFSSNGIHWVRQAPGKGLEWVAVIWSDGSNKFYADSVKGRFTISRDNSKNTLYLQMNSLRAEDTAVYYCARASGSGSYYNFFDYWGQGTLVTVSS VL: EIVMTQSPATLSVSPGERATLSCRASQSVRSNLAWYQQKPGQAPRLLIYGASTRATGIPARFSGSGSGTEFTLTINSLQSEDFAVYYCQQHNKWITFGQGTRLEIKR	614

Okay, now this binder:
Input line: Reported Maximum MFI for PR006492 (antibody, human IgG1, kappa, V domains shown, PR003379 variant L:N92E; human IgG1 L234A, L235A, G237A) VH: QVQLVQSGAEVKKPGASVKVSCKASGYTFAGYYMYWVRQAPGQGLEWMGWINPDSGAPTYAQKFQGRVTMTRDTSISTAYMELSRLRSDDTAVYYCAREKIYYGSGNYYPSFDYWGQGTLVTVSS VL: DIQLTQSPSFLSASVGDRVTITCRASQGISSYLAWYQQKPGKAPKLLIYAASTLQSGVPSRFSGSGSGTEFTLTISSLQPEDFATYYCQQLESYPWTFGQGTKVEIKR : what is it?
Output line: 9070

Source listed as patent US20250215100A1.
